Details: mouse, in vivo, 10 days
test.readout: Toxicity at 30 mg/kg

1) Nc1cc(Cn2cnc3c(O)c(Cl)cc(Cl)c3c2=O)ccn1 [PB 1250] :: 10 days, 1/4 deaths
2) CCn1cnc2c(O)c(I)cc(Cl)c2c1=O [PB 1138] :: 10 days, 2/4 deaths
3) CCCCc1cnc2c(O)c(I)ccn2c1=O [PB 1145] :: 10 days, 2/4 death
4) CC(C)n1cnc2c(O)c(I)ccc2c1=O [PB 1153] :: 10 days, 1/4 deaths
5) CCn1cnc2c(O)c(I)ccc2c1=S [PB 1168] :: 10 days, none, 1/4 mild signs
6) CC(C)c1cnc2c(O)c(I)ccn2c1=O [PB 1142] :: 10 days, 1/4 death
7) CCCCc1cnc2c(O)cccn2c1=S [PB 1148] :: 7 days, 2/4 deaths
8) O=c1c2ccc(I)c(O)c2ncn1-c1ccc(F)cc1F [PB 1157] :: 6 days, 2/4 deaths
9) O=C(NCc1ccc(F)cc1)c1cnc2c(O)c(I)ccn2c1=O [PB 1158] :: 7 days, 4/4 deaths
